# Assayed target: human Claudin-6 (CLDN6) (human) (UniProt P56747)
# Test method notes: FACS, 1.5 ug Ab, 293T clone expressing human CLDN6 (2nd Ab only 768.07)
Label yes (1) when FACS fluorescence >= 200000; otherwise no (0).

# example entries with known answers
| Binder | Category |
| --- | --- |
| AB4-10 (antibody, V domains shown, humanized) VH: QVQLVQSGAEVKKPGASVKMSCKASGYTFTSYTMHWIRQAPGQGQEWIGYINPSSTYTHYIKKFKDRATLTADTSTSTAYMELSSLRSEDTAVYYCSRGELGGFAYWGQGTLVTVSS VL: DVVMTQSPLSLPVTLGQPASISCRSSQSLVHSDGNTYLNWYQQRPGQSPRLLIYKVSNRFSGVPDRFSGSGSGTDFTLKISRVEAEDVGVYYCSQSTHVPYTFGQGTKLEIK | no (0) |
| AB1-5 (antibody, V domains shown, humanized) VH: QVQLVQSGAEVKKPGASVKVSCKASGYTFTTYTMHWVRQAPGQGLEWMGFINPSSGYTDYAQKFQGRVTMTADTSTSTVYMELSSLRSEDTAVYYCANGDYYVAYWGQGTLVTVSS VL: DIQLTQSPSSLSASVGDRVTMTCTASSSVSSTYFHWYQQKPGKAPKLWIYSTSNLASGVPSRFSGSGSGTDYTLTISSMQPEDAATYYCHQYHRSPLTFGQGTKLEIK | yes (1) |
| AB4-11 (antibody, V domains shown, humanized) VH: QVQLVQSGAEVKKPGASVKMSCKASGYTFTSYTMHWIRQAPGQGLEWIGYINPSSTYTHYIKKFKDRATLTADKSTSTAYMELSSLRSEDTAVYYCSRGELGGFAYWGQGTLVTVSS VL: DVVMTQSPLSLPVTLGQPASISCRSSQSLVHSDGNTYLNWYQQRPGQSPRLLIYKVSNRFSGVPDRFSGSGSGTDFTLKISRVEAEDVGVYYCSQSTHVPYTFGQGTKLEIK | no (0) |
| AB4-3 (antibody, V domains shown, humanized) VH: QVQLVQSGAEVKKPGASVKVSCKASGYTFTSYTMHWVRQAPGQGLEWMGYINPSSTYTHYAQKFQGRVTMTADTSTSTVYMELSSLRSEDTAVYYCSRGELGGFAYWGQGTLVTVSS VL: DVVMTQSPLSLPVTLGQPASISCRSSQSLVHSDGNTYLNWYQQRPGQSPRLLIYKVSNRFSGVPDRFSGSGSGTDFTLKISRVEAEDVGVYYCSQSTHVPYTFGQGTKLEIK | no (0) |

Ask: Could you verify whether the entry AB4-7 (antibody, V domains shown, humanized) VH: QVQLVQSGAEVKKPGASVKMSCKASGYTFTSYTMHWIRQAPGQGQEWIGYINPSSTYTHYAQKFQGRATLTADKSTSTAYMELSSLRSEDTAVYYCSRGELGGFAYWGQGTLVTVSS VL: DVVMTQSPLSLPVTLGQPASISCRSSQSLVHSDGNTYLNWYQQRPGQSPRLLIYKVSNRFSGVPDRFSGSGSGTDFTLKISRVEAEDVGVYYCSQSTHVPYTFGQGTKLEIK shows FACS fluorescence of no less than 200000?
Reply: no (0)

Ask: Could you verify whether the entry AB18-6 (antibody, V domains shown) VH: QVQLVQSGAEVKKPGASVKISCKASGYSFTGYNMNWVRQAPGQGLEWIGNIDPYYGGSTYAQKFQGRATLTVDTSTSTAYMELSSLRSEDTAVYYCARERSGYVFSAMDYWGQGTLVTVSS VL: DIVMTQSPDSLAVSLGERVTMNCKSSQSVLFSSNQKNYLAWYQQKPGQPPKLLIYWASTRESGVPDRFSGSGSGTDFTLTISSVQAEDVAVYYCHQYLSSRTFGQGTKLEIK shows FACS fluorescence of no less than 200000?
Reply: no (0)

Ask: Could you verify whether the entry AB4-chim (antibody, V domains shown) VH: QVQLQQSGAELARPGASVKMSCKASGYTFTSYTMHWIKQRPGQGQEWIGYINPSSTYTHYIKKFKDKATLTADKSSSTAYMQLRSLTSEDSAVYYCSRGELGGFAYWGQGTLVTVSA VL: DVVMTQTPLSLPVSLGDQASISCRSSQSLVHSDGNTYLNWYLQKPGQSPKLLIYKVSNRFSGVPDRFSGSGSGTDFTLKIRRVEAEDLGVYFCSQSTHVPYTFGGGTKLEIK shows FACS fluorescence of no less than 200000?
Reply: yes (1)

Ask: Could you verify whether the entry AB3-chim (antibody, V domains shown) VH: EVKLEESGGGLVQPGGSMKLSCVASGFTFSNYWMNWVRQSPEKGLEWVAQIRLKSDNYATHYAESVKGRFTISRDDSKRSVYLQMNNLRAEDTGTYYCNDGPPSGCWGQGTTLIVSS VL: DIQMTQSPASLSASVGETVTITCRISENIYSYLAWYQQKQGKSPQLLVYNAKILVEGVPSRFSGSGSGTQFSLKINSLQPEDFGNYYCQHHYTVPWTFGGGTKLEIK shows FACS fluorescence of no less than 200000?
Reply: yes (1)

Ask: Could you verify whether the entry AB1-6 (antibody, V domains shown, humanized) VH: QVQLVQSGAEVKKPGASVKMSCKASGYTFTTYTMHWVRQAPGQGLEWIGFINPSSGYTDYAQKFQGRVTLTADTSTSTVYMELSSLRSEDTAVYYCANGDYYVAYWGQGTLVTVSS VL: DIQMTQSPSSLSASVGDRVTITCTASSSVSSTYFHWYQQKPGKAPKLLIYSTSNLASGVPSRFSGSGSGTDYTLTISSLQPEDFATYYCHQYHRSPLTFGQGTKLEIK shows FACS fluorescence of no less than 200000?
Reply: yes (1)
